# System: UO-31 renal
# assay explanation: NCI-60 one-dose screen, 48 h
# recorded conditions: 10 µM unless noted
Compounds without any hit were thinned out: in the full panel of roughly 83,000, 20% have a hit. The source made the active and inactive calls. The calls were made as follows: active = growth percent below 10; inactive = the rest.
Outcomes you can answer with include only these: active, inactive

CCNc1ccc2ccccc2c1N=Nc1ccc(N=Nc2ccccc2)cc1 | inactive

**Q:** Any idea what this test logged for C=CC(C)C(C)(C)O (stereo not given) ?
**A:** inactive

**Q:** Record lookup: outcome of this test for C/C(=N\O)c1ccccn1 ?
**A:** inactive

**Q:** Any idea what this test logged for Cc1nc(C)c(C(=O)O)cc1C(=O)O ?
**A:** inactive

**Q:** Given C=C1CC2(OC1=O)C(=O)N(C)c1ccc(I)cc12 (stereo not given) , state the outcome it received in this test.
**A:** active

**Q:** I'd appreciate the recorded outcome for C=CCc1cc(OC)c(O)c(OC)c1 from this test.
**A:** inactive

**Q:** Per the records of this test, what outcome belongs to c1ccc(Nc2ccccn2)nc1 ?
**A:** inactive

**Q:** Recorded test call requested for CC(=O)NNC(=S)N/C=C/c1c(C)ccc([N+](=O)[O-])c1[N+](=O)[O-]
**A:** inactive

**Q:** For this compound, state the assay outcome: O=C(c1cccc(C(=O)c2ccc3c4c(cccc24)C(=O)N(c2ccccc2)C3=O)c1)c1ccc2c3c(cccc13)C(=O)N(c1ccccc1)C2=O
**A:** inactive

**Q:** // return assay outcome for NNc1ncccn1
**A:** inactive

**Q:** Which outcome did this test record for the compound CCOS(=O)(=O)c1ccc([N+](=O)[O-])cc1 ?
**A:** inactive

**Q:** Recorded call for COC1OC(C(O)C(O)CO)C(O)C(O)C1O (stereo not given) ?
**A:** inactive

====

# Tested on: ACHN renal
# assay explanation: NCI-60 one-dose screen, 48 h
# recorded conditions: 10 µM unless noted
About 83,000 compounds went through this panel and 20% of them were active in at least one assay; those are over-represented in the sample as a whole. Activity calls are given as the source filed them. The calls were made as follows: active = growth percent below 10; inactive = the rest.
// classify into true (active), false (inactive)

Examples from the recorded data:
Cc1ccc(S(=O)(=O)CCCl)cc1 | false
CCN(CC)CCCC(C)NC(=S)N/N=C(\C)c1ccccn1 (stereo unspecified) | false
C=C1CC2(OC1=O)C(=O)N(C)c1ccc(I)cc12 (stereo unspecified) | true
CC(=O)c1cc(O)ccc1O | false
CN(CCCN(C)CCC1CCCCC1)CCC1CCCCC1 | false

**Q:** Recorded test outcome, item c1ccc(Nc2ccccn2)nc1
**A:** false

**Q:** I'd appreciate the recorded outcome for CCCCCCCCCc1ccc(OC(C)=O)cc1 from this test.
**A:** false

**Q:** # fetch the recorded call for Nc1ncnc(Nc2ccccc2)n1 here
**A:** false

**Q:** Recorded call for Nc1ccccc1SC1CC(=O)N(c2ccc(Cl)c(Cl)c2)C1=O (stereo unspecified) ?
**A:** false

**Q:** // return assay outcome for CCC(=O)Oc1c(C)cc(O)c2ccccc12
**A:** false

**Q:** Hi team, can someone confirm the assay call for O=C(Nc1cccc(Cl)c1)c1ccc(Cl)cc1Cl ?
**A:** false

**Q:** // return assay outcome for O=c1n(CC2CO2)c(=O)n(CC2CO2)n1CC1CO1 (stereo unspecified)
**A:** false

**Q:** Recorded test call requested for CC(=O)c1cccc(O)c1
**A:** false
